# Test system: 697B cells, BCR-induced NF-kB luciferase reporter luminescence
# PROTOCOL_DETAILS: inhibitors of BCR-induced NF-kB activation, dose response, 697B cells, luciferase luminescence (AID 489023)
The source made the active and inactive calls. The rule behind the calls is not given here.
Give one outcome, nothing more. List: active, inactive

Look over these answered cases.
CCCS(=O)(=O)Nc1cccc(-c2ccc3nnc(C)n3n2)c1: inactive
CCOc1ccc(-c2nnc(SCC(=O)NC3CC3)o2)cc1: inactive
CC(C)(C)c1ccc(-c2noc(CCC(=O)Nc3cccnc3)n2)cc1: active
CC(C)(C)c1ccc(-c2noc(CCC(N)=O)n2)cc1: active
O=C(CN1C(=O)c2ccccc2S1(=O)=O)c1ccc(OC(F)F)cc1: active

I'd appreciate the recorded outcome for `C(=N\Nc1nc(Nc2ccccc2)nc(Nc2ccccc2)n1)/c1cccnc1` from this test.
inactive

I'd appreciate the recorded outcome for `COc1ccccc1/C=C1\SC(=S)N(CCC(=O)Nc2cccc(O)c2)C1=O` from this test.
inactive

I'd appreciate the recorded outcome for `O=C(CCCN1C(=O)/C(=C/c2ccccc2Cl)SC1=S)Nc1ccccn1` from this test.
active

I'd appreciate the recorded outcome for `Cn1c(=NC(=O)CCl)sc2ccccc21` from this test.
active

I'd appreciate the recorded outcome for CCOCCCNc1nc2c(C)cccn2c(=O)c1/C=C1\SC(=S)N(C(C)CC)C1=O (stereo not given) from this test.
inactive

I'd appreciate the recorded outcome for `Cc1c(NC(=O)/C=C/c2cn(-c3ccccc3)nc2-c2ccccc2)c(=O)n(-c2ccccc2)n1C` from this test.
inactive

I'd appreciate the recorded outcome for CC1CN(S(=O)(=O)c2ccc(C(=O)Nc3nc(-c4cc5ccccc5o4)cs3)cc2)CC(C)O1 (stereo not given) from this test.
inactive

I'd appreciate the recorded outcome for `CC(=C\c1ccccc1)/C=C1/SC(=O)N(CCCC(=O)Nc2ccc(C(=O)O)cc2)C1=O` from this test.
active

I'd appreciate the recorded outcome for `CN1C(=O)CSc2ccc(NC(=O)N3CCN(c4ccccc4)CC3)cc21` from this test.
inactive

I'd appreciate the recorded outcome for Cc1ccc(S(=O)(=O)CC2CSc3nc4ccccc4n32)cc1 (stereo not given) from this test.
inactive

I'd appreciate the recorded outcome for COc1ccc(/C=C\C(=O)O[C@@H]2C(O)C(O[C@@H]3OC(C)[C@H](O[C@@H]4OCC(O[C@H]5O[C@H](CO)[C@@H](O)C(O)C5O)C(O)C4O)C(O)C3O)[C@H](OC(=O)[C@]34CCC(C)(C)C[C@@H]3C3=CCC5[C@@]6(C)CC(O)C(O[C@@H]7OC(CO)C(O)[C@H](O)[C@H]7O)[C@@](C)(C(=O)O)C6CC[C@@]5(C)[C@]3(CO)CC4)O[C@H]2C)cc1 (stereo not given in full) from this test.
active
